- Experimental system: CYP3A4 (Homo sapiens, UniProt P08684)
- Construct: containing human liver microsomes (0.1 mg/mL); from tissue; host or cells: human liver microsomes
- Sequence (P08684 whole entry): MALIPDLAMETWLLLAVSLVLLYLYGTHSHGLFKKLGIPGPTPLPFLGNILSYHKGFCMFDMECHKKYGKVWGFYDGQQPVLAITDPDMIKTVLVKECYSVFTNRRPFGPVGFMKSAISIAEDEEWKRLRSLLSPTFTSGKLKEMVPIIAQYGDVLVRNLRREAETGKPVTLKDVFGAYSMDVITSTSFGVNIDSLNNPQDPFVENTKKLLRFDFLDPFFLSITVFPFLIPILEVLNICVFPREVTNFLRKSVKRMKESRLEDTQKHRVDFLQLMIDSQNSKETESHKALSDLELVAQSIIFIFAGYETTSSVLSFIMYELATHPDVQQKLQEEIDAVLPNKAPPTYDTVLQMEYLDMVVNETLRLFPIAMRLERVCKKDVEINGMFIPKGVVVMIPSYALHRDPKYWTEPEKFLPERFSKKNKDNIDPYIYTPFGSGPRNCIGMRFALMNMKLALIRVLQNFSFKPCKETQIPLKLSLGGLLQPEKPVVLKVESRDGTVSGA
- Measurement protocol: CYP3A4 inhibition assay
- Type: in vitro ADME
- Condition summary: human liver microsomes, testosterone probe; read-out: CYP3A4 inhibition Assay IC50, Testosterone probe
pIC50: −log10 of the molar value.
Result type: pIC50

Smiles code: O=C(Cc1ccc(S(=O)(=O)CC2CC2)cc1)Nc1ccc([C@](O)(C(F)F)C(F)(F)F)cc1
Endpoint value: 4.80
--
Smiles code: O=C(Cc1ccc(S(=O)(=O)CC2CC2)cc1)Nc1ccc([C@@](O)(C(F)F)C(F)(F)F)cc1
Endpoint value: 4.89

The measurements presented in this section are drawn from patent US20190119204A1.
